# credit: patent US20190382504A1

system-name: T1, HLA-A*02:01 on T2 cells without peptide loading (human)
T1 construct: TAP-deficient T2 cells, no peptide added; also called No peptide; T2 cells with no peptide loaded
experiment-summary: FACS, peptide-pulsed T2 cells
measurement-name: MFI
Form field (numeric): enter value without unit.

Record excerpt, results attached:
binder: phage clone #52, anti-ESO157/HLA-A*02:01 scFv displayed on phage (scFv, V domains shown) VH: QVQLVQSGAEVKKPGASVKVSCKASGYTFTSYGISWVRQAPGQGLEWMGWISAYNGNTNYAQKLQGRVTMTTDTSTSTAYMELRSLRSDDTAVYYCARYSGYYAGDSWGQGTLVTVSS VL: QSVLTQPPSVSGAPGQRVTISCTGSSSNIGAGYDVHWYQQLPGTAPKLLIYGDTNRPSGVPDRISGSKSGTSASLAITGLQAEDEADYYCQSYDSNLYTYVFGTGTKVTVLG
MFI: 113
//
binder: phage clone #148, anti-ESO157/HLA-A*02:01 scFv displayed on phage (scFv, V domains shown) VH: EVQLVQSGAEVKKPGASVKVSCKASGGTFSSYAISWVRQAPGQGLEWMGGIIPIFGTANYAQKFQGRVTITADKSTSTAYMELSSLRSEDTAVYYCARSYWSWTPYDPWGQGTLVTVSS VL: LPVLTQPPSVSVAPGKTARITCGGNNIGSKSVHWYQQKPGQAPVLVIYYDSDRPSGIPERFSGSNSGNTATLTISRVEAGDEADYYCQVWDSSSDHYVFGTGTKVTVLG
MFI: 208
//
binder: phage clone #66, anti-ESO157/HLA-A*02:01 scFv displayed on phage (scFv, V domains shown) VH: EVQLVESGAEVKRPGASVKVSCKASGYTFTSYGISWVRQAPGQGLEWMGRFIPNLNKGNSAHKFEGRVSFTADKFTNTAYMELRGLKSDDTAVYYCARGDYGSDQWGQGTLVTVSS VL: QSVLTQPPSVSGAPGQRVTISCTGSSSNIGAGYDVHWYQQLPGTAPKLLIYGNSNRPSGVPDRFSGSKSGTSASLAITGLQAEDEADYYCQSYDSSLSGSWVFGGGTKLTVLG
MFI: 157
//
binder: phage clone #76, anti-ESO157/HLA-A*02:01 scFv displayed on phage (scFv, V domains shown) VH: EVQLVQSGAEVKKPGSSVKVSCKASGGTFSSYAISWVRQAPGQGLEWMGGIIPIFGTANYAQKFQGRVTITADESTSTAYMELSSLRSEDTAVYYCARYDSYVYDEWGQGTLVTVSS VL: QSVVTQPPSLSGAPGQRVTISCNGSGSNIGAGYDVHWYQQLPGTAPKLLIYGNSNRPSGVPDRFSGSKSGTSASLAITGLQAEDEADYYCQSYDSSLSGWGIFGGGTKLTVLG
MFI: 131

Continue with the binder presented below.
Prompt: # lookup: MFI of phage clone #116, anti-ESO157/HLA-A*02:01 scFv displayed on phage (scFv, V domains shown) VH: QVQLVQSGPEVKKPGASMKVSCKASGYTFTKYGISWVRQAPGQGLEWMGWISADSGKTSYAQNLQGRVSLTIDTSTATAYMELRSLRSDDTAVYYCARDDDSWGQGTLVTVSS VL: QSVLTQPPSVSAAPGQKVTISCSGSSSNIGNNYVSWYQQLPGTAPKLLIYDNNKRPSGIPDRFSGSKSGTSATLGITGLQTGDEADYYCGTWDSSLSAEVFGTGTKVTVLG
Response: 502
